- EXPERIMENT_NOTES: Tanguay_ZF_120hpf_SOMI_legacy: (Legacy) Oregon State University Tanguay Lab 120 Hour Post-fertilization zebrafish Assay for Somite Malformation (AID 2283647)
Inconclusive results are not listed. Calls of active or inactive are those of the source. How the source made its calls: active means hit-call score of the fitted dose curve at least 0.9, where 1 is the maximum; inconclusive means response in the unintended direction; inactive means score below 0.9.
Pick from yes for active, no for inactive when you respond.

Below, 4 molecules whose answers are already recorded.
-- ask For CCCCCCCCC(=O)O , which call appears in the assay record?
-- reply no

-- ask For OCCC(F)(F)C(F)(F)C(F)(F)C(F)(F)C(F)(F)C(F)(F)C(F)(F)C(F)(F)F , which call appears in the assay record?
-- reply no

-- ask For N#C[C@@H]1CC(F)(F)CN1C(=O)CNC1CC2CCC(C1)N2c1ncccn1 (stereo partly drawn) , which call appears in the assay record?
-- reply no

-- ask For CC1=C(/C=C/C(C)=C/C=C/C(C)=C/C(=O)O)C(C)(C)CCC1 , which call appears in the assay record?
-- reply yes

Others:
-- ask For CC(C)CCCCCCOC(=O)CCCCC(=O)OCCCCCCC(C)C , which call appears in the assay record?
-- reply no

-- ask For CCCOC(=O)c1ccc(O)cc1 , which call appears in the assay record?
-- reply yes

-- ask For COCC(C)OCC(C)O (stereo not drawn) , which call appears in the assay record?
-- reply no

-- ask For Cc1oc(-c2ccccc2)nc1CCOc1ccc(C[C@H](Nc2ccccc2C(=O)c2ccccc2)C(=O)O)cc1 , which call appears in the assay record?
-- reply no

-- ask For CCCCCCC(=O)O , which call appears in the assay record?
-- reply no

-- ask For CCN(CC)CCNc1ccc(CNC=O)c2sc3ccc(OC)cc3c(=O)c12 , which call appears in the assay record?
-- reply no

-- ask For C[C@@H]1C[C@H]2[C@@H]3CCC4=CC(=O)C=C[C@]4(C)[C@@]3(F)[C@@H](O)C[C@]2(C)[C@@]1(O)C(=O)COP(=O)(O)O , which call appears in the assay record?
-- reply no

-- ask For CCCCC(CC)COC(=O)CCCCC(=O)OCC(CC)CCCC (stereo not drawn) , which call appears in the assay record?
-- reply no

-- ask For CN(C)C=O , which call appears in the assay record?
-- reply no

-- ask For CC#C[C@]1(O)CC[C@H]2[C@@H]3CCC4=CC(=O)CCC4=C3[C@@H](c3ccc(N(C)C)cc3)C[C@@]21C , which call appears in the assay record?
-- reply no

-- ask For NC(=O)N(O)[C@@H]1C=C[C@H](Oc2cccc(Oc3ccc(F)cc3)c2)C1 , which call appears in the assay record?
-- reply no

-- ask For CCCOc1sc(C(=O)N2CCC(c3cc(CN)ccc3F)CC2)c(C)c1Br , which call appears in the assay record?
-- reply no

-- ask For CCc1ccc(CCOc2ccc(CC3SC(=O)NC3=O)cc2)nc1 (stereo not drawn) , which call appears in the assay record?
-- reply no

-- ask For O=c1c(-c2ccc(O)cc2)coc2cc(O)ccc12 , which call appears in the assay record?
-- reply no

-- ask For CCCCCCCC(=O)O , which call appears in the assay record?
-- reply no

-- ask For CCC(=C(c1ccc(O)cc1)c1ccc(OCCN(C)C)cc1)c1ccccc1 , which call appears in the assay record?
-- reply no

-- ask For c1ccc2cc3c(ccc4ccccc43)cc2c1 , which call appears in the assay record?
-- reply no

-- ask For OC1CCC(C2CCCCC2)CC1 (stereo not drawn) , which call appears in the assay record?
-- reply no
